Form field: melting point (one value per entry).

Use the examples below as a reference point.
CC(=O)Oc1ccc(C=C2SC(=S)N(CC(=O)O)C2=O)cc1OC(C)=O = 193 to 253 °C
COc1cc(C)c2c(c1C=C1SC(=S)N(CC(=O)O)C1=O)Oc1c(c(C)c(O)c3c1C(O)OC3=O)OC2=O (stereo not drawn) = > 260 °C
COc1cc(C)c(C=C2SC(=S)N(CC(=O)O)C2=O)cc1C = 240 °C
CC(C)(C)c1cc(C=C2SC(=S)N(C(CCC(=O)O)C(=O)O)C2=O)cc(C(C)(C)C)c1O (stereo not drawn) = 130 °C (dec.)
O=C(O)CN1C(=O)C(=Cc2ccc(OCc3ccc4c(c3)OCO4)cc2)SC1=S = 206 to 207 °C
CCCCCCOc1ccccc1C=C1SC(=S)N(CC(=O)O)C1=O = 148 to 150 °C

(Q) // Input: `O=C(O)CN1C(=O)C(=Cc2cc3ccccc3s2)SC1=S` . Output its melting point only.
(A) 292 to 294 °C

(Q) // Input: CC(C=CC1=C(C)CCCC1(C)C)=CC=C1SC(=S)N(CC(=O)O)C1=O [Example 46] . Output its melting point only.
(A) 153 to 155 °C

(Q) // Input: CC1C(C=C2SC(=S)N(CC(=O)O)C2=O)=CC=C(O)C1(C)O (stereo not drawn) . Output its melting point only.
(A) > 240 °C

(Q) // Input: `CCOc1c(C)cc(C=CC=C2SC(=S)N(CC(=O)O)C2=O)c(C)c1OCC` . Output its melting point only.
(A) 210 °C (dec.)
